Ref: patent US10392368B2

Study system: JAK2 (Homo sapiens, UniProt O60674)
Construct: GST; purchased Life Technologies
Sequence (O60674 whole entry): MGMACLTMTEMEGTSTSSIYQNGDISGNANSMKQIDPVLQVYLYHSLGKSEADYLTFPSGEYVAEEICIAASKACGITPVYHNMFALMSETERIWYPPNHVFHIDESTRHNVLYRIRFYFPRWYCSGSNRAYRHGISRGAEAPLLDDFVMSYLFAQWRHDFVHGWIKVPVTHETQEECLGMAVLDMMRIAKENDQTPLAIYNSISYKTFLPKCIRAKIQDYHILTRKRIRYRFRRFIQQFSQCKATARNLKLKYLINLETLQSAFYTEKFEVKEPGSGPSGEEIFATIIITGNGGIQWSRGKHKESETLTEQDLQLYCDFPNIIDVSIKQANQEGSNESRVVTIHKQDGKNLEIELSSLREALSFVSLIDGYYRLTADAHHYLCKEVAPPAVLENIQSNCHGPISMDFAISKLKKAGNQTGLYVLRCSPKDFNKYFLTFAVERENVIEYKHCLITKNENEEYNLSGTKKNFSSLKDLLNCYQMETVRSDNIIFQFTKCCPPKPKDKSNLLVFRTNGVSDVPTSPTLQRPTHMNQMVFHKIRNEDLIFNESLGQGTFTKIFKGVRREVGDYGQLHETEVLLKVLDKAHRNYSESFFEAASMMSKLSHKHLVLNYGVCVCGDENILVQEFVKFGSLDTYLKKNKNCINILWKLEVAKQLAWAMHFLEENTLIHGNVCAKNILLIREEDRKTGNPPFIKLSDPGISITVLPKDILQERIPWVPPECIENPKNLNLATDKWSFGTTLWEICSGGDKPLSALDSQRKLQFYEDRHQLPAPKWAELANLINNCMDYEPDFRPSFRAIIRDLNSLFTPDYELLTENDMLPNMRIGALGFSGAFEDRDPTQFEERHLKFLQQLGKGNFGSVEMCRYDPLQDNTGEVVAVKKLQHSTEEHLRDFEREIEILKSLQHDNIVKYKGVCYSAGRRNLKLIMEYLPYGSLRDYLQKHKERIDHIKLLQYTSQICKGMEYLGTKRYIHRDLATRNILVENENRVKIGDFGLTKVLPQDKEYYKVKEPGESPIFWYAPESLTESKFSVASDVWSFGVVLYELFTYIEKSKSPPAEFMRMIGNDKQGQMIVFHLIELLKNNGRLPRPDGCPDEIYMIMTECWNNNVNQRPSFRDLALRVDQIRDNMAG
Test protocol: Biochemical JAK2 kinase assay (LanthaScreen)
Reported property: JAK 2 (pKi)

Query CN(C)C/C=C/C(=O)N1CC(Oc2cc(-c3ccc(O)c(Cl)c3)cc3[nH]ncc23)(C(F)F)C1 yields JAK 2 (pKi) of 6

* * *

Study system: JAK3 (Homo sapiens)
Test protocol: Biochemical JAK3 kinase assay (LanthaScreen)
Design: GST; purchased Life Technologies
Experimental parameters: selectivity JAK3 over JAK1, difference of pKi
Reported property: JAK3 (pKi)-JAK1 (pKi)

>>> result("CN(C)C/C=C/C(=O)N1CCC(COc2cc(-c3ccc(O)c(Cl)c3)cc3[nH]ncc23)CC1")
"B (a value of 2.3 to 3)"
>>> result("CN(C)C/C=C/C(=O)N1CC2(CC(Oc3cc(-c4ccc(O)cc4)cc4[nH]ncc34)C2)C1")
"B (a value of 2.3 to 3)"

* * *

Study system: UniProt:P52333
Test protocol: Biochemical JAK3 kinase assay (LanthaScreen)
Set-up: GST; purchased Life Technologies
Experimental parameters: selectivity: difference of pKi JAK3 and pKi JAK1
Reported property: JAK3 (pKi)-JAK1 (pKi)

>>> result("C=CC(=O)N1CC(C)(COc2cc(-c3ccc(O)c(F)c3)cc3[nH]ncc23)C1")
"B (a value of 2.3 to 3)"
>>> result("C=CC(=O)N1CC(F)(COc2nc(-c3ccc(O)cc3)cc3[nH]ncc23)C1")
"B (a value of 2.3 to 3)"
>>> result("CN(C)C/C=C/C(=O)N1CC(F)(COc2cc(-c3ccc(O)cc3)cc3[nH]ncc23)C1")
"B (a value of 2.3 to 3)"

* * *

molecules and their reported Ki
Study system: JAK3 (Homo sapiens)
Test protocol: Biochemical JAK3 kinase assay (LanthaScreen)
Parameters: GST; purchased Life Technologies
Experimental parameters: read-out: JAK 3 (pKi) (converted)
Method: A panel of four LanthaScreen JAK biochemical assays (JAK1, 2, 3 and Tyk2) were carried in a common kinase reaction buffer (50 mM HEPES, pH 7.5, 0.01% Brij-35, 10 mM MgCl2, and 1 mM EGTA). […] Serially or discretely diluted compounds were pre-incubated with each of the four JAK enzymes and the substrate in white 384-well microplates (Corning) at ambient temperature for 1 h. […] The plates were allowed to incubate at ambient temperature for 1 h before being read on the EnVision reader (Perkin Elmer). […]

In the examples that follow, each entry is paired with its recorded Ki.
>>> result("C=CC(=O)N1CC(COc2cc(-c3ccc(O)c(F)c3)nc3[nH]ncc23)C1")
"0.1 to 1 nM"
>>> result("O=C(/C=C/CN1CCC1)N1CC(COc2cc(-c3ccc(O)cc3)cc3[nH]ncc23)C1")
"< 0.1 nM"
>>> result("C=CC(=O)N1CC[C@H](Oc2cc(-c3ccc(O)cc3)cc3[nH]nc(COC)c23)C1")
"< 0.1 nM"
>>> result("C=CC(=O)N1CC(F)(C2(Oc3cc(-c4ccc(O)cc4)cc4[nH]ncc34)CC2)C1")
"0.1 to 1 nM"
>>> result("C=CC(=O)N1CC[C@H](Oc2cc(-c3ccc(O)cc3)cc3[nH]ncc23)C1")
"< 0.1 nM"
>>> result("C=CC(=O)N1CC(C)(COc2nc(-c3ccc(O)cc3)cc3[nH]ncc23)C1")
"< 0.1 nM"
>>> result("C=CC(=O)N1CCC(Oc2cc(-c3ccc(O)cc3)nc3[nH]ncc23)CC1")
"< 0.1 nM"

Here is another molecule to look at.
Field Ki (system: JAK3 (Homo sapiens)) for entry COCCN(C)C/C=C/C(=O)N1CC(COc2cc(-c3ccc(O)cc3)cc3[nH]ncc23)C1 = < 0.1 nM

* * *

Study system: JAK2 (Homo sapiens, UniProt O60674)
Construct: GST; purchased Life Technologies
Test protocol: Biochemical JAK2 kinase assay (LanthaScreen)
Experimental parameters: read-out: JAK 2 (pKi) (converted)
Reported property: Ki

>>> result("C=CC(=O)N1CCC(Oc2cc(-c3ccc(O)c(F)c3)nc3[nH]ncc23)CC1 [Compound 6-18]")
"> 100 nM"

Lab entry: JAK2 (Homo sapiens, UniProt O60674) assay, compound C=CC(=O)N1CC(C#N)(COc2nc(-c3ccc(O)c(Cl)c3)nc3[nH]ncc23)C1 [Compound 3-109] , Ki = > 100 nM

Form field, Ki with JAK2 (Homo sapiens, UniProt O60674), item C=CC(=O)N1CC[C@H](Oc2cc(-c3ccc(O)cc3)cc3[nH]ncc23)C[C@H]1C [Compound 12-32] : 10 to 100 nM

JAK2 (Homo sapiens, UniProt O60674) assay, compound C=CC(=O)N1CCC(Oc2nc(-c3ccc(O)c(F)c3)cc3[nH]ncc23)CC1 [Compound 6-16] , recorded Ki = 10 to 100 nM

* * *

System: IL-2 stimulated pSTAT5 in Tall-1 T cells
Test protocol: Cellular JAK3 potency assay: inhibition of IL-2 stimulated pSTAT5 in Tall-1 T cells
Assay type: cell-based, human
Experimental parameters: Homo sapiens, TALL-1, IL-2 stimulated pSTAT5 in Tall-1 T cells; read-out: Tall-1 (pIC50) (converted)
Reported property: IC50

Sample answers from the record:
>>> result("CN(C)C/C=C/C(=O)N1CC(C(C)(C)Oc2cc(-c3ccc(O)c(F)c3)cc3[nH]ncc23)C1")
"31.6 to 200 nM"
>>> result("C=CC(=O)N1CC[C@H](Oc2nc(-c3ccc(O)c(F)c3)nc3[nH]nc(C)c23)C1")
"31.6 to 200 nM"
>>> result("C=CC(=O)N1CC(COc2nc(-c3ccc(O)cc3)nc3[nH]ncc23)(OC)C1")
"31.6 to 200 nM"

Lab note: molecule CN(C)C/C=C/C(=O)N1CC(F)(COc2cc(-c3ccc(O)c(F)c3)cc3[nH]ncc23)C1 tested on IL-2 stimulated pSTAT5 in Tall-1 T cells; recorded IC50 was < 31.6 nM

Test item COC1CCN(C/C=C/C(=O)N2CC(COc3cc(-c4ccc(O)cc4)cc4[nH]ncc34)C2)CC1 ; IL-2 stimulated pSTAT5 in Tall-1 T cells; reported IC50 was 31.6 to 200 nM

For the molecule C=CC(=O)N1CC(C(C)Oc2nc(-c3ccc(O)cc3)nc3[nH]ncc23)C1 (centres unmarked) , the measured IC50 on IL-2 stimulated pSTAT5 in Tall-1 T cells was 31.6 to 200 nM

Reported IC50 (IL-2 stimulated pSTAT5 in Tall-1 T cells) for entry C=CC(=O)N1CC(F)(COc2nc(-c3ccc(O)c(F)c3)cc3[nH]ncc23)C1 is < 31.6 nM

Known value: IL-2 stimulated pSTAT5 in Tall-1 T cells IC50 of the molecule C=CC(=O)N1CC[C@H](COc2cc(-c3ccc(O)cc3)cc3[nH]ncc23)C1 equals 31.6 to 200 nM

* * *

Study system: UniProtKB P52333
Test protocol: Biochemical JAK3 kinase assay (LanthaScreen)
Set-up: GST; purchased Life Technologies
Experimental parameters: selectivity: difference of pKi JAK3 and pKi JAK1
Reported property: JAK3 (pKi)-JAK1 (pKi)

>>> result("C=CC(=O)N1CC(C)(COc2nc(-c3ccc(O)c(Cl)c3)cc3[nH]ncc23)C1")
"B (a value of 2.3 to 3)"
>>> result("Cc1cc(O)c(F)cc1-c1cc(O[C@H]2CCN(C(=O)/C=C/CN(C)C)C2)c2cn[nH]c2c1")
"B (a value of 2.3 to 3)"

* * *

Study system: JAK3 (Homo sapiens, UniProt P52333)
Sequence (P52333 whole entry): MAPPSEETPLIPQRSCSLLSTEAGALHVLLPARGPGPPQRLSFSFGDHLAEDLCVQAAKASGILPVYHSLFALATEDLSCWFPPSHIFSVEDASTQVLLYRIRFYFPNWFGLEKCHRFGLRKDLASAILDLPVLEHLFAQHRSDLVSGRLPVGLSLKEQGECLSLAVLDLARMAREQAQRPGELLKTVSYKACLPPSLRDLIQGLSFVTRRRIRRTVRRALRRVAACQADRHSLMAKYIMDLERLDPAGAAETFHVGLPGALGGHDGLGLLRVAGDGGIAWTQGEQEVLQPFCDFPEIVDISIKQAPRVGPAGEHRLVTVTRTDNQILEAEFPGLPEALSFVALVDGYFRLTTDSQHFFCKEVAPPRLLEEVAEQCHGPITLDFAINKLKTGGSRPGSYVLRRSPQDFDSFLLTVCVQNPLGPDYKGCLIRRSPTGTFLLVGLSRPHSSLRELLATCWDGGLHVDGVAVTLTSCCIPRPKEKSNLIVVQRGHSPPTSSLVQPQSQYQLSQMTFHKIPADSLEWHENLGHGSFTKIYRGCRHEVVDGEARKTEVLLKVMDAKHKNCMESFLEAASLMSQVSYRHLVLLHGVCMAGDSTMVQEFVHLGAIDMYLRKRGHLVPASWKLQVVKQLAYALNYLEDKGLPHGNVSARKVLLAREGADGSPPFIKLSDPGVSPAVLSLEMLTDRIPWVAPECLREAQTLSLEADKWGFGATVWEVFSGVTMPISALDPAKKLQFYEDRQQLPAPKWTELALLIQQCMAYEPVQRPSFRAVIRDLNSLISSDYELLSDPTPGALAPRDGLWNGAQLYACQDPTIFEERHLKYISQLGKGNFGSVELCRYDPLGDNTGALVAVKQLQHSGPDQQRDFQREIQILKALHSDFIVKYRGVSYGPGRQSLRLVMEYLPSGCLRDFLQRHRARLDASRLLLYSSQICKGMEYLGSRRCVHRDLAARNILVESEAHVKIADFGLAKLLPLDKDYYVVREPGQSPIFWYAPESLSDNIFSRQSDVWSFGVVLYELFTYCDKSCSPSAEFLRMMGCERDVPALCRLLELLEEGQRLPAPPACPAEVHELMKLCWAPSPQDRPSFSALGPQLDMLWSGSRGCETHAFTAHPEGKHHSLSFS
Test protocol: Biochemical JAK3 kinase assay (LanthaScreen)
Set-up: GST; purchased Life Technologies
Experimental parameters: selectivity JAK3 over JAK1, difference of pKi
Reported property: JAK3 (pKi)-JAK1 (pKi)

Below: 5 compounds and their reported JAK3 (pKi)-JAK1 (pKi).
>>> result("CN(C)C/C=C/C(=O)N1CCC(Oc2cc(-c3ccc(O)c(F)c3)cc3[nH]ncc23)CC1")
"B (a value of 2.3 to 3)"
>>> result("C=CC(=O)N1CCC(COc2nc(-c3ccc(O)c(Cl)c3)cc3[nH]ncc23)CC1")
"B (a value of 2.3 to 3)"
>>> result("C=CC(=O)N1CCC(Nc2cc(-c3ccc(O)cc3)cc3[nH]ncc23)C(F)(F)C1 (stereo not shown)")
"B (a value of 2.3 to 3)"
>>> result("C=CC(=O)N1CC(Oc2cc(-c3ccc(O)cc3)cc3[nH]ncc23)(C(F)(F)F)C1")
"B (a value of 2.3 to 3)"
>>> result("C=CC(=O)N1CC[C@H]1COc1cc(-c2ccc(O)cc2)cc2[nH]ncc12")
"B (a value of 2.3 to 3)"

From here, focus on the item given below.
Measured JAK3 (pKi)-JAK1 (pKi), C=CC(=O)N1CCC(C)(Nc2nc(-c3ccc(O)c(Cl)c3)cc3[nH]ncc23)CC1 : B (a value of 2.3 to 3)
